- System: 422866-222-R5-J1-PDC complex spheroids viability;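 further: spheroids exposed to compounds for 7 days; 100% = DMSO vehicle control viability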
- protocol-details: Anticancer human tumor 422866-222-R5-J1-PDC patient-derived pancreatic adenocarcinoma cell line growth inhibition [RAS]
- test-parameters: second compound 0.003 µM; first compound 0.0316 µM; active compounds read low
Each entry below lists one item and its recorded viability, T/C value.

>  <molecule>
C=CC(=O)N1CCN(c2nc(OCC3CCCN3C)nc3c(F)c(-c4nc(N)cc(C)c4C(F)(F)F)c(Cl)cc23)C(C)C1 (stereo not drawn) + CCn1c(-c2cccnc2C(C)OC)c2c3cc(ccc31)N1CCOC(CC(NC(=O)C(C(C)C)N(C)C(=O)C3(F)CCN(C(=O)C#CC(C)(C)N(C)C)CC3)C(=O)N3CCCC(N3)C(=O)OCC(C)(C)C2)C1

>  <viability, T/C>
21.5%

$$$$
>  <molecule>
CC(C)NCC(C(=O)N1CCN(c2ncnc3c2C(C)CC3O)CC1)c1ccc(Cl)cc1 (stereo not drawn) + CCn1c(-c2cc(N3CCN(C)CC3)cnc2C(C)OC)c2c3cc(ccc31)-c1csc(n1)CC(NC(=O)C1CC1C)C(=O)N1CCCC(N1)C(=O)OCC(C)(C)C2

>  <viability, T/C>
25.2%

$$$$
>  <molecule>
NC1c2ccccc2OC12CCN(c1cnc3c(N4CCCc5ncccc54)n[nH]c3n1)CC2 (stereo not drawn) + CCn1c(-c2cccnc2C(C)OC)c2c3cc(ccc31)N1CCOC(CC(NC(=O)C(C(C)C)N(C)C(=O)C3(F)CCN(C(=O)C#CC(C)(C)N(C)C)CC3)C(=O)N3CCCC(N3)C(=O)OCC(C)(C)C2)C1

>  <viability, T/C>
16%

$$$$
>  <molecule>
Nc1ccn(C2OC(CO)C(O)C2(F)F)c(=O)n1 (stereo not drawn) + CCn1c(-c2cc(N3CCN(C)CC3)cnc2C(C)OC)c2c3cc(ccc31)-c1csc(n1)CC(NC(=O)C1CC1C)C(=O)N1CCCC(N1)C(=O)OCC(C)(C)C2

>  <viability, T/C>
20.5%

$$$$
>  <molecule>
Nc1ccn(C2OC(CO)C(O)C2(F)F)c(=O)n1 (stereo not drawn) + CCn1c(-c2cccnc2C(C)OC)c2c3cc(ccc31)N1CCOC(CC(NC(=O)C(C(C)C)N(C)C(=O)C3(F)CCN(C(=O)C#CC(C)(C)N(C)C)CC3)C(=O)N3CCCC(N3)C(=O)OCC(C)(C)C2)C1

>  <viability, T/C>
20.3%

$$$$
>  <molecule>
Cc1nc(N2CCC3(CC2)COC(C)C3N)c(CO)nc1Sc1ccnc(N)c1Cl (stereo not drawn) + CCn1c(-c2cc(N3CCN(C)CC3)cnc2C(C)OC)c2c3cc(ccc31)-c1csc(n1)CC(NC(=O)C1CC1C)C(=O)N1CCCC(N1)C(=O)OCC(C)(C)C2

>  <viability, T/C>
23.6%

$$$$
>  <molecule>
C=CC(=O)Nc1cc(Nc2nccc(-c3cn(C)c4ccccc34)n2)c(OC)cc1N(C)CCN(C)C + CCn1c(-c2cc(N3CCN(C)CC3)cnc2C(C)OC)c2c3cc(ccc31)-c1csc(n1)CC(NC(=O)C1CC1C)C(=O)N1CCCC(N1)C(=O)OCC(C)(C)C2

>  <viability, T/C>
20.2%

$$$$
>  <molecule>
NC1c2ccccc2OC12CCN(c1cnc3c(N4CCCc5ncccc54)n[nH]c3n1)CC2 (stereo not drawn) + CCn1c(-c2cc(N3CCN(C)CC3)cnc2C(C)OC)c2c3cc(ccc31)-c1csc(n1)CC(NC(=O)C1CC1C)C(=O)N1CCCC(N1)C(=O)OCC(C)(C)C2

>  <viability, T/C>
19.2%

$$$$
